This listing pairs compounds with measured MIC of peptidomimetics.
- Tested on: S. aureus 38
- recorded_conditions: 38
Square brackets hold non-standard residues; d marks the D form. Peptide text beside a SMILES is read from it. Nspe(4-Br) = C[C@H](NCC(=O)O)c1ccc(Br)cc1; N(tridecyl)Gly = CCCCCCCCCCCCCNCC(=O)O; Nspe = C[C@H](NCC(=O)O)c1ccccc1; Nlys = NCCCCNCC(=O)O
Kindly answer with a numeric value in µM, unit omitted.

// known answers, use as guide
[
  {
    "compound": "CCCCCCCCCCCCCNCC(=O)N(CCCCN)CC(=O)N(CC(=O)N(CC(=O)N(CCCCN)CC(=O)N(CCCCN)CC(N)=O)[C@@H](C)c1ccccc1)[C@@H](C)c1ccccc1 [TM15] (H-[N(tridecyl)Gly][Nlys][Nspe][Nspe][Nlys][Nlys]-NH2)",
    "unit_annotation": "µM",
    "value": 8.1
  },
  {
    "compound": "C[C@@H](c1ccc(Br)cc1)N(CC(=O)N(CCCCN)CC(=O)N(CC(=O)N(CC(=O)N(CCCCN)CC(N)=O)[C@@H](C)c1ccc(Br)cc1)[C@@H](C)c1ccccc1)C(=O)CN(C(=O)CNCCCCN)[C@@H](C)c1ccccc1 [TM12] (H-[Nlys][Nspe][Nspe(4-Br)][Nlys][Nspe][Nspe(4-Br)][Nlys]-NH2)",
    "unit_annotation": "µM",
    "value": 6.5
  },
  {
    "compound": "C[C@@H](c1ccc(Br)cc1)N(CC(N)=O)C(=O)CN(C(=O)CN(CCCCN)C(=O)CN(C(=O)CN(C(=O)CNCCCCN)[C@@H](C)c1ccccc1)[C@@H](C)c1ccc(Br)cc1)[C@@H](C)c1ccccc1 [TM2] (H-[Nlys][Nspe][Nspe(4-Br)][Nlys][Nspe][Nspe(4-Br)]-NH2)",
    "unit_annotation": "µM",
    "value": 7.2
  }
]

Pending compound:
Write down the reported MIC of peptidomimetics of C[C@@H](c1ccc(Br)cc1)N(CC(=O)N(CCCCN)CC(=O)N(CC(=O)N(CC(=O)N(CCCCN)CC(N)=O)[C@@H](C)c1ccc(Br)cc1)[C@@H](C)c1ccc(Br)cc1)C(=O)CN(C(=O)CNCCCCN)[C@@H](C)c1ccc(Br)cc1 [TM14] (H-[Nlys][Nspe(4-Br)][Nspe(4-Br)][Nlys][Nspe(4-Br)][Nspe(4-Br)][Nlys]-NH2) , test system: S. aureus 38.
2.9

* * *

- Tested on: En. cloacae 005
- recorded_conditions: En. cloacae 005; CAMHB, 37°C, 16–20 h
readout_type: MIC of antibiotics

[
  {
    "compound": "O=C(N[C@H](CO)[C@H](O)c1ccc([N+](=O)[O-])cc1)C(Cl)Cl [Chl, chloramphenicol, reference compound]",
    "MIC of antibiotics": "32 µg/mL"
  }
]

Given CNC(C)C1CCC(N)C(OC2C(N)CC(N)C(OC3OCC(C)(O)C(NC)C3O)C2O)O1 (stereo not drawn) [Gen, gentamicin, reference compound] , state its recorded MIC of antibiotics.
0.25 µg/mL

Param item = C[C@@H](O)[C@H]1C(=O)N2C(C(=O)O)=C(S[C@@H]3CN[C@H](C(=O)N(C)C)C3)[C@H](C)[C@H]12 [Mer, meropenem, reference compound] ; retrieve measured MIC of antibiotics.
0.25 µg/mL

# credit: paper PMC11879280
